# Tested on: A549/ATCC
# Assay type: cell-based
# condition.details: Homo sapiens, one dose 10^-5 M, 48 h
measured.property: % growth at 10 µM (%)
Just the number in %, nothing appended.

CN(C)c1ccc(-c2nc(S)nc(N)c2C#N)cc1 ... 96.5
N=C(NN=Cc1ccc(Br)cc1)c1c(N)nc(S)nc1-c1ccc(Cl)cc1Cl ... 98.8
N#Cc1c(N)nc(S)nc1-c1ccc(Cl)cc1Cl ... 90.1
CN(C)c1ccc(-c2cc([N+](=O)[O-])ccc2C=NNC(=N)c2cnc(S)nc2N)cc1 ... 104
N=C(NN=Cc1ccccc1)c1c(N)nc(S)nc1-c1ccc(Cl)cc1Cl ... 97.4
N#Cc1c(N)nc(S)nc1-c1ccc(Cl)cc1 ... 86

Now consider a different compound.
## Input Recorded % growth at 10 µM of `Nc1nc(S)nc(-c2ccc(Cl)cc2Cl)c1-c1ncn[nH]1` , please.
## Output 102
